assay: LYSA solubility study; format: physicochemical; conditions: 0.05 M phosphate buffer, pH 6.5, aqueous buffer, thermodynamic from solid, read-out: LYSA of Prodrugs
experimentalReadout: solubility thermodynamic (µg/mL)
Provide only the numeric value, understood in µg/mL.

(Q) Please give the measured solubility thermodynamic for this compound: CCCN(C)C(=O)n1c(=O)n(Cc2ccc(Br)cc2)c2nc([S@](=N)(=O)CC)nc(N)c21 (single isomer, unassigned) [Example 47-A]
(A) 154
